Hello, the source for this data is the supplement of paper PMC10065799, in case you need it.

Target: FGFR3 (UniProt P22607)
Sequence (P22607 whole entry, looked up): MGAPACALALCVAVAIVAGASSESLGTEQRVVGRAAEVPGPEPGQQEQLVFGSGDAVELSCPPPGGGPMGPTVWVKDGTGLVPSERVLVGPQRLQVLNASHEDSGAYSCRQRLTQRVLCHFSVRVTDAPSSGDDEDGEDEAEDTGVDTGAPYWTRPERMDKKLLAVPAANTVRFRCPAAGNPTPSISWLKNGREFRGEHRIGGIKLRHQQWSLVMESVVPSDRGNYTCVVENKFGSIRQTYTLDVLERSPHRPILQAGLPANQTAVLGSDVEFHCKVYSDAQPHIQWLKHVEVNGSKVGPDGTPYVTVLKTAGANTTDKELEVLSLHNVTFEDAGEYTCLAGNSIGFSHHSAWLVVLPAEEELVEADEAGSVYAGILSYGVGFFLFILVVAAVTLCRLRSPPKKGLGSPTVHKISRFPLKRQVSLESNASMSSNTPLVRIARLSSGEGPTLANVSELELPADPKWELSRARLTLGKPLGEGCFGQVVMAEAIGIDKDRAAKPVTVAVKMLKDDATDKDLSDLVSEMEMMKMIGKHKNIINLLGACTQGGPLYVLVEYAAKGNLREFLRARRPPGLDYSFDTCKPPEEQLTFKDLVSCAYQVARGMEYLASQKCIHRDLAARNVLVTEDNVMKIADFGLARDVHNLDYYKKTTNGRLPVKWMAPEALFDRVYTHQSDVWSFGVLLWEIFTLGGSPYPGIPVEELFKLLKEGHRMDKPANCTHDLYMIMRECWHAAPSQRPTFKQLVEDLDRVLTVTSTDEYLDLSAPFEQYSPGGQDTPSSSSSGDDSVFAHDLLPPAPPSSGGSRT
Assay: phosphorylation enrichment, bacterial display (enrichment ratio); higher = better substrate or ligand; peptides without Tyr show the background;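 further: 11-residue human phosphosite peptides and single-mutation variants displayed on the E. coli surface, counted by deep sequencing, each peptide's frequency after selection divided by its frequency in the unselected input library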;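 further: frequency after pTyr selection over input frequency; kinase dosed for 20-30% of maximal phosphorylation in three min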
If the reported phosphorylation enrichment equals or exceeds 0.7, assign Yes. If not, assign No.

residues: RLDRSYSFSFS [PEAR1_Y890_YF]
assigned_class: No

Is phosphorylation enrichment for PSSNLYFRWLT [CNGA3_Y168_YF] at or above 0.7?
Yes

###

phosphorylation enrichment overview
Target: Jak2 (UniProt O60674)
Sequence (O60674 whole entry, looked up): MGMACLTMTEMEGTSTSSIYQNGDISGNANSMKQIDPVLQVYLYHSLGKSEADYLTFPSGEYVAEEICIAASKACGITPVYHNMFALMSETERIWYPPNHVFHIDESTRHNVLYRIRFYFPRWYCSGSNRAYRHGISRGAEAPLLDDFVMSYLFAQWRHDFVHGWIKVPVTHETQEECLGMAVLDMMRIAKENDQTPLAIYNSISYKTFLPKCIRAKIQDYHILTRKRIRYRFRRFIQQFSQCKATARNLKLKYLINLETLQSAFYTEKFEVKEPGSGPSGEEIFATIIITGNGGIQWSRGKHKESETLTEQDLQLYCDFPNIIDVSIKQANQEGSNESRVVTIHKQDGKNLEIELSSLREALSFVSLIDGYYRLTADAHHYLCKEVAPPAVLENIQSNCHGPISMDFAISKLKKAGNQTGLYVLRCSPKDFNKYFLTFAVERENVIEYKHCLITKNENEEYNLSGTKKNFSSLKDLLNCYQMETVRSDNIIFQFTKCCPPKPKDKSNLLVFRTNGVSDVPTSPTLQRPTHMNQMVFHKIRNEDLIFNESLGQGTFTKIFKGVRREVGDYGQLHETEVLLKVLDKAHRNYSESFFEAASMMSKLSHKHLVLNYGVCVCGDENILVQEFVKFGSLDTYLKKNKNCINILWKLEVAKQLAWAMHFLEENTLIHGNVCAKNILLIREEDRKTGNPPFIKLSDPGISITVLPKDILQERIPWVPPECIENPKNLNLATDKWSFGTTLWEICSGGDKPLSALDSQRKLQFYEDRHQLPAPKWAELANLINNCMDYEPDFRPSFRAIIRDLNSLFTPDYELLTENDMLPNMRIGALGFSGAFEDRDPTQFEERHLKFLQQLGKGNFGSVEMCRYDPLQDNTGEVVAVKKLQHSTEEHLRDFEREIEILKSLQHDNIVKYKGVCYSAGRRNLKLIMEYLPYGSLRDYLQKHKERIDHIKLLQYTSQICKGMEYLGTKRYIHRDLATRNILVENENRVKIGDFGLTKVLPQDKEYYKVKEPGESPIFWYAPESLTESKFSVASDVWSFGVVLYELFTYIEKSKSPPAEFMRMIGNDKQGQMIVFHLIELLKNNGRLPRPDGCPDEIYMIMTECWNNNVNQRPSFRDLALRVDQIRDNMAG
Experiment: phosphorylation enrichment, bacterial display (enrichment ratio); higher = better substrate or ligand; peptides without Tyr show the background
Just the number, please.

residues: SHNELYYEEAE [VANGL1_Y344]
phosphorylation enrichment: 1.37

residues: SVTCTYSPALY [TP53_Y126_N131Y]
phosphorylation enrichment: 1.33

residues: VDTAMYATMQR [TPO_Y55]
phosphorylation enrichment: 0.531

residues: KLKRSYCSPDI [USP8_Y717_S718C]
phosphorylation enrichment: 0.648

Need phosphorylation enrichment of VPVPGYTKLPE [SPRR3_Y146] , thanks.
0.848
